molecular target: D(4) dopamine receptor (Homo sapiens); assay: Displacement of [3H]N-methylspiperone from human D4 receptor expressed in HEK293 cell membrane by competitive inhibition based analysis
Sequence (P21917 whole entry): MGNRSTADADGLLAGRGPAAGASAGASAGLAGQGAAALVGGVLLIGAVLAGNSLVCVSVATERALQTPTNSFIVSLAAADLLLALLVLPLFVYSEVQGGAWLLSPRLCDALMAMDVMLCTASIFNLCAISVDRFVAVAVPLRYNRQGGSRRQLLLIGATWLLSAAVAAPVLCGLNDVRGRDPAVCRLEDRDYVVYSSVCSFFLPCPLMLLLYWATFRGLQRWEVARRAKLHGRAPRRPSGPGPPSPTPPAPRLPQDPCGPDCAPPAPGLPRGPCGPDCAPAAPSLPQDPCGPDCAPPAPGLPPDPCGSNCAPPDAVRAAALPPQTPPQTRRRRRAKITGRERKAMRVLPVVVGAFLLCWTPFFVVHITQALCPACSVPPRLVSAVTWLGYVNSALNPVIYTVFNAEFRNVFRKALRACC
pIC50: −log10 of the molar value.
READOUT_LABEL: pIC50

// worked examples, pIC50 included
>  <SMILES_STR>
Cc1cc(CO[C@H]2CCCN(Cc3cn4ccccc4n3)C2)ccc1F

>  <READOUT_LABEL>
pIC50

>  <MEASURED_RESULT>
6.73

$$$$
>  <SMILES_STR>
Cc1c(Cl)cccc1NC(=O)CN1CCC(OCc2cccc(C(F)(F)F)c2)CC1

>  <READOUT_LABEL>
pIC50

>  <MEASURED_RESULT>
5.94

$$$$
>  <SMILES_STR>
FC(F)(F)c1cccc(COC2CCN(Cc3cn4ccccc4n3)CC2)c1

>  <READOUT_LABEL>
pIC50

>  <MEASURED_RESULT>
6.78

$$$$
>  <SMILES_STR>
Cc1ccc(CO[C@H]2CCCN(Cc3ccc(Cl)c(Cl)c3)C2)cc1

>  <READOUT_LABEL>
pIC50

>  <MEASURED_RESULT>
5.86

$$$$
>  <SMILES_STR>
COc1ccc(CN2CCC[C@H](OCc3cccc(F)c3)C2)cc1F

>  <READOUT_LABEL>
pIC50

>  <MEASURED_RESULT>
6.69

$$$$

P. Cn1ncc2cc(CN3CCC(OCc4ccc(F)c(F)c4)CC3)ccc21
Q. FC(F)(F)c1cccc(COC2CCN(Cc3ccc4[nH]cnc4c3)CC2)c1
R. Fc1cc(COC2CCN(Cc3ccc4[nH]ncc4c3)CC2)ccc1Cl
S. COc1ccc(CN2CCC[C@H](OCc3cccc(C)n3)C2)cc1F
T. Fc1cccc(COC2CCN(Cc3cn4ccccc4n3)CC2)c1
Task: Which order do these items take when sorted by rising pIC50? List them. Respond with the label ranking, as requested.
Output: Q, S, R, P, T

Data origin, for the record: ChEMBL document CHEMBL5143585
